log10(GI50) reference
system: HT-29; assay: NCI tumour cell line growth inhibition, 48 h
The whole screen tested about 57,000 sequences, of which about 4,300 (7.5%) were called active. A selection follows. Results with a measured potency or affinity are listed apart.
value.kind: log10(GI50) (log10 of the value in µM)

INSERT INTO results (substance, assay_target, experimental_value) VALUES
  ('mu-(1,7-nanodiamine-N,N'')bis-(cis-aminedichloroplatimum (II)), CHEMBL2146215', 'HT-29', 1.63),
  ('[Bis(aminomethyl)ethylmethylsilane]tetrachloroplatinum(IV), CHEMBL2146192', 'HT-29', 0.20),
  ('[Bis(aminomethyl)tetramethylenesilane]tetrachloropaltinum(IV), CHEMBL2146189', 'HT-29', 0.69),
  ('[Bis(aminomethyl)dimethylsilane]dichloroplatinum (II), CHEMBL2146201', 'HT-29', 1.26),
  ('[Bis(aminomethyl)pentamethylenesilane]dichloropaltinum(II), CHEMBL2146202', 'HT-29', 0.50),
  ('[Bis(aminomethyl)dimethylsilane]tetrachloroplatinum(IV), CHEMBL2146190', 'HT-29', 0.72);
